Recorded values, source patent US12233073B2.

system: SSL-induced skin tumors in SKH-1 hairless mice; details: SSL-exposed; compound in cream, percent per TABLE 5; 15 mice
measured.parameter: % Mortality (%)
Report the figure in % without appending any unit label.

Recorded results for 4 compounds are shown here.
>  <compound>
CCCCC(CC)COC(=O)c1ccccc1O (stereo not shown) [Octisalate]

>  <unit.spec>
%

>  <% Mortality>
66.7

$$$$
>  <compound>
CC1CC(OC(=O)c2ccccc2O)CC(C)(C)C1 (stereo not shown) [Homosalate]

>  <unit.spec>
%

>  <% Mortality>
6.7

$$$$
>  <compound>
COc1ccc(C(=O)c2ccccc2)c(O)c1 [Oxybenzone]

>  <unit.spec>
%

>  <% Mortality>
6.7

$$$$
>  <compound>
COc1ccc(C(=O)CC(=O)c2ccc(C(C)(C)C)cc2)cc1 [Avobenzone]

>  <unit.spec>
%

>  <% Mortality>
6.7

$$$$

# context switch: different compound, same % Mortality
What does the record list as % Mortality for CCCCC(CC)COC(=O)C=Cc1ccc(OC)cc1 (stereo not shown) [Octinoxate] ?
13.3
